Measured % Phosphatase Activity ABI1 accompanies every entry in the list below.
# assay target: ABI1 (Arabidopsis thaliana, UniProt O49686+P49597)
# Construct: ABI1 (residues 117-434) and ABI2 (residues 101-423) were expressed as H6Sumo fusion proteins; H6Sumo (N); made in house; host or cells: E. coli BL21
# Sequence (P49597 117-434 limits assumed): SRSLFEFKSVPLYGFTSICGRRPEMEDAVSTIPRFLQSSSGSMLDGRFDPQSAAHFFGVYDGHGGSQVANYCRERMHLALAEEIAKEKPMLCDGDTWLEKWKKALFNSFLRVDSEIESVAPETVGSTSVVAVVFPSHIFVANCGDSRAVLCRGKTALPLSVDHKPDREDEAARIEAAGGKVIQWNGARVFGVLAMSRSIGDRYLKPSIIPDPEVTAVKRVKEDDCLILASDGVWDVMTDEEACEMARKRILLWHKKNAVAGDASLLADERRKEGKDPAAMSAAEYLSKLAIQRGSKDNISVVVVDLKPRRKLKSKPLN
# Sequence (O49686 whole entry, the tested form may be a part): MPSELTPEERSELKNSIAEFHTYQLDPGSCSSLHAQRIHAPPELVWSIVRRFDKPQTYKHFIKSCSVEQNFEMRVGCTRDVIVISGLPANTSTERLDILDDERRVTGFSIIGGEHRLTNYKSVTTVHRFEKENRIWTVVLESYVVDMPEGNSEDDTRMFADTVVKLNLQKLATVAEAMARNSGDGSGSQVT
# test: PP2C phosphatase activity assay, ABI1
# Assay type: biochemical
# details: 200 nM PP2C; SnRK2.6 phosphopeptide substrate; None = 100
observed property: % Phosphatase Activity ABI1 (%)

INSERT INTO measurements (molecule, measurement_unit, reported_result) VALUES
  ('CSCCCC(NS(=O)(=O)c1ccc(Br)c2ccccc12)C(=O)O (centres unmarked) [Compound 3]', '%', 7.7),
  ('CCN1C(=O)c2cccc3c(S(=O)(=O)NC[C@@H]4CCCO4)ccc1c23 [Compound 11]', '%', 4.7),
  ('O=C1Nc2ccc(S(=O)(=O)NCc3ccccn3)c3cccc1c23 [Compound 1]', '%', 3.3),
  ('CCOC(=O)CNS(=O)(=O)c1ccc2c3c(cccc13)C(=O)N2CC [Compound 2]', '%', 4.3),
  ('O=S(=O)(NCc1ccccn1)c1ccc(Br)c2ccccc12 [Pyrabactin, pyrabactin]', '%', 2.8);

###

# assay target: His6-PYR1 / biotin-ABI1 (Arabidopsis thaliana)
# Construct: not expressly for PYR1)
# Sequence (O49686 whole entry): as the sequence (O49686 whole entry, the tested form may be a part) above
# Sequence (P49597 117-434 partner limits assumed): as the sequence (P49597 117-434 limits assumed) above
# test: AlphaScreen dose response, PYR1-ABI1 interaction
# details: 100 nM His6-PYR1, 100 nM biotin-PP2C, 0-100 μM agonist; from dose response curves
observed property: EC50

INSERT INTO results (compound, reported_result) VALUES
  ('CSCCCC(NS(=O)(=O)c1ccc(Br)c2ccccc12)C(=O)O (centres unmarked) [Compound 3]', '< 5 µM'),
  ('O=S(=O)(NCc1ccccn1)c1ccc(Br)c2ccccc12 [Pyrabactin, pyrabactin]', '5 to 10 µM'),
  ('CCN1C(=O)c2cccc3c(S(=O)(=O)NC[C@@H]4CCCO4)ccc1c23 [Compound 11]', '10 to 20 µM'),
  ('CCOC(=O)CNS(=O)(=O)c1ccc2c3c(cccc13)C(=O)N2CC [Compound 2]', '10 to 20 µM'),
  ('O=C1Nc2ccc(S(=O)(=O)NCc3ccccn3)c3cccc1c23 [Compound 1]', '10 to 20 µM');

###

# assay target: HAB1 (Arabidopsis thaliana, UniProt O49686+Q9CAJ0)
# Construct: HAB1 (residues 172-511) were prepared as recombinant proteins in E. coli; H6GST or H6Sumo; made in house; host or cells: E. coli
# Sequence (Q9CAJ0 172-511 limits assumed): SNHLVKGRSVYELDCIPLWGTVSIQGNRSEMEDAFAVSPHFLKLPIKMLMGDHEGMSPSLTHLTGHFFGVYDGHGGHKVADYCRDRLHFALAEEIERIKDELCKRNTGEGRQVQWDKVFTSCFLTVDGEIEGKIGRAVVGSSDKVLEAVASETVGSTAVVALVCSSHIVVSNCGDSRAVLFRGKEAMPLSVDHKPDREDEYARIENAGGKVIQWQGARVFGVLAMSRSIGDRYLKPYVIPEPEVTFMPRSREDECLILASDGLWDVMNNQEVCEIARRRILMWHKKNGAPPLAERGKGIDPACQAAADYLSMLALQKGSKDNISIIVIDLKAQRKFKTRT
# Sequence (O49686 whole entry, the tested form may be a part): as the sequence (O49686 whole entry, the tested form may be a part) above
# test: PP2C phosphatase activity assay, HAB1
# Assay type: biochemical
# details: 200 nM PP2C; SnRK2.6 phosphopeptide substrate; None = 100
Measured % Phosphatase Activity HAB1 by item
observed property: % Phosphatase Activity HAB1 (%)

INSERT INTO results (compound, reported_result) VALUES
  ('O=S(=O)(NCc1ccccn1)c1ccc(Br)c2ccccc12 [Pyrabactin, pyrabactin]', 12.6),
  ('CCN1C(=O)c2cccc3c(S(=O)(=O)NC[C@@H]4CCCO4)ccc1c23 [Compound 11]', 8.8),
  ('O=C1Nc2ccc(S(=O)(=O)NCc3ccccn3)c3cccc1c23 [Compound 1]', 16.6),
  ('CSCCCC(NS(=O)(=O)c1ccc(Br)c2ccccc12)C(=O)O (centres unmarked) [Compound 3]', 17.5),
  ('CCOC(=O)CNS(=O)(=O)c1ccc2c3c(cccc13)C(=O)N2CC [Compound 2]', 6.1);
